Molecular target: SMARCA2 (Homo sapiens, UniProt P51531)
Sequence (P51531 whole entry): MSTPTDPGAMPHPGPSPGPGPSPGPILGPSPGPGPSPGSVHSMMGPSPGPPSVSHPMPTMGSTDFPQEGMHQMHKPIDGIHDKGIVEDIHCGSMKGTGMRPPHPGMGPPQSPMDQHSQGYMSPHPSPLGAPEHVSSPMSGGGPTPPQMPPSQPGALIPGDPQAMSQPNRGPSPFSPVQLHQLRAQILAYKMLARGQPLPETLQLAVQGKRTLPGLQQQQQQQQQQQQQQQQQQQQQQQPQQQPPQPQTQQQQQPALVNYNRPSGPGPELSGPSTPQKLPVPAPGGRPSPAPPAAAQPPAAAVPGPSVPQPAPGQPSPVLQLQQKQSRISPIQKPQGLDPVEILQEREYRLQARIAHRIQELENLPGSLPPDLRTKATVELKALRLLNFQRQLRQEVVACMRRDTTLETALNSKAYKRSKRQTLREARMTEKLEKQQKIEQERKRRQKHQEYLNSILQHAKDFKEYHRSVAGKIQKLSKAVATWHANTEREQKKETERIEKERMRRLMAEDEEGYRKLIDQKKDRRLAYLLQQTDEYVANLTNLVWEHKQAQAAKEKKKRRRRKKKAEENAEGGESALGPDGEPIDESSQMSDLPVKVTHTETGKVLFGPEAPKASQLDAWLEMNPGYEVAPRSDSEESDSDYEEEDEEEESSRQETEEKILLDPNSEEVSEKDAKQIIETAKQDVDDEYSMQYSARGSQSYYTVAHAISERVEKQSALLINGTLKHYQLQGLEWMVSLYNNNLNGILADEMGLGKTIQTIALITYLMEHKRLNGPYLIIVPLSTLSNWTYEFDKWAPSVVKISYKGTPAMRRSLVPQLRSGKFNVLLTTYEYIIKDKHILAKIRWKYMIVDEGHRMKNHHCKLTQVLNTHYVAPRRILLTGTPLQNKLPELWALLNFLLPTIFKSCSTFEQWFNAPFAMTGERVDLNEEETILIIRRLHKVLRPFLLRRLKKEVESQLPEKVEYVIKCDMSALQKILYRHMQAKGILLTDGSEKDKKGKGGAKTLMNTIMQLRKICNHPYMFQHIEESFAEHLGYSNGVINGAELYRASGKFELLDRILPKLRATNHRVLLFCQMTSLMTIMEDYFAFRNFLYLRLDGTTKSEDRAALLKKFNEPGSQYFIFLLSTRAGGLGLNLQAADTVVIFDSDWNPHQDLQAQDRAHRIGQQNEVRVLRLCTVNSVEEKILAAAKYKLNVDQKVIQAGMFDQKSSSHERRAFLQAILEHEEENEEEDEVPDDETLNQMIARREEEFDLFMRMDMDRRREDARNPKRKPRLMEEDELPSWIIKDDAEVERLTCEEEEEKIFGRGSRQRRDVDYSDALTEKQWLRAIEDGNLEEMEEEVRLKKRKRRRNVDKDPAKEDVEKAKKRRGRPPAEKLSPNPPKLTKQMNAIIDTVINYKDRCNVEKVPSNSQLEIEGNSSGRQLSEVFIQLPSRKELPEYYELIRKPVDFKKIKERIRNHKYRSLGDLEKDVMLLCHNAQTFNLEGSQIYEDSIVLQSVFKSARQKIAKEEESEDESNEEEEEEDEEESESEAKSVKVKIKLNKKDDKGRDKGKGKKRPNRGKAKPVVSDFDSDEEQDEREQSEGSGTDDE
Test: MSD SMARCA2 degradation in A549 cell line
Assay type: cell-based
Conditions: A549, A549 cells, 24 h
For each of the compounds below, state its Dmax.

Observe how each entry below is paired with its result.
INSERT INTO results (compound, reported_property, reported) VALUES
  ('Cc1ncsc1-c1ccc(CNC(=O)[C@@H]2C[C@@H](O)CN2C(=O)[C@@H](NC(=O)[C@H]2CCC3(CC2)C[C@H](N2CCC4(CC2)CN(C(=O)N2CCN5c6cc(-c7ccccc7O)nnc6NC[C@H]5C2)CCO4)C3)C(C)(C)C)cc1 (single isomer, unassigned) [I-133]', 'Dmax', '70 to 90%'),
  ('C#Cc1ccc(CNC(=O)[C@@H]2C[C@@H](O)CN2C(=O)[C@@H](OC(=O)N2CC3(CC(N4CCC(c5cnc(N6CCc7[nH]c8nnc(-c9ccccc9O)cc8c7[C@H]6C)nc5)CC4)C3)C2)C(C)(C)C)cc1 [I-138]', 'Dmax', '> 90%'),
  ('C#Cc1ccc(CNC(=O)[C@@H]2C[C@@H](O)CN2C(=O)[C@@H](NC(=O)N2CC3(CC(N4CCC(N5CC6(CC(N7CCN8c9cc(-c%10ccccc%10O)nnc9NC[C@H]8C7)C6)C5)CC4)C3)C2)C(C)(C)C)cc1 [I-224]', 'Dmax', '> 90%');

Now, please, on to the next compound.
The recorded Dmax for entry C#Cc1ccc(CNC(=O)[C@@H]2C[C@@H](O)CN2C(=O)[C@@H](NC(=O)N2CCN(C[C@H]3CCN(c4cnc(N5CCc6[nH]c7nnc(-c8ccccc8O)cc7c6[C@H]5C)nc4)C3)CC2)C(C)(C)C)cc1 (single isomer, unassigned) [I-162] equals > 90%

----------
Biological target: SMARCA2 (Homo sapiens, UniProt P51531)
Assay: MSD SMARCA2 degradation in A549 cell line
Assay type: cell-based
Details: A549 cells, 24 h, read-out: SMARCA2 MSD A549 degradation 24 h: Average external-Abs DC50
For each of the compounds below, state its DC50.

Observe how each entry below is paired with its result.
INSERT INTO results (compound, reported) VALUES
  ('C#Cc1ccc(CNC(=O)[C@@H]2C[C@@H](O)CN2C(=O)[C@@H](NC(=O)[C@H]2CCC3(CC2)C[C@H](N2CCC(c4cnc(N5CCN6c7cc(-c8ccccc8O)nnc7NC[C@H]6C5)nc4)CC2)C3)C(C)(C)CCO)cc1 (single isomer, unassigned) [I-131]', '10 to 50 nM'),
  ('C#Cc1ccc(CNC(=O)[C@@H]2C[C@@H](O)CN2C(=O)[C@@H](NC(=O)C2CC3(C2)CC(N2CCC(N4CCC(N5CCN6c7cc(-c8ccccc8O)nnc7NC[C@H]6C5)CC4)CC2)C3)C(C)(C)C)cc1 (stereo partly shown) [I-137]', '50 to 100 nM'),
  ('C#Cc1ccc(CNC(=O)[C@@H]2C[C@@H](O)CN2C(=O)[C@@H](NC(=O)[C@H]2CCC3(CC2)C[C@H](N2CCC(N4CC5(CC(N6CCN7c8cc(-c9ccccc9O)nnc8NC[C@H]7C6)C5)C4)CC2)C3)C(C)(C)C)c(Cl)c1 (single isomer, unassigned) [I-220]', '> 100 nM'),
  ('C#Cc1ccc(CNC(=O)[C@@H]2C[C@@H](O)CN2C(=O)[C@H](NC(=O)N2CC3(CC(N4CCC(c5cnc(N6CCc7[nH]c8nnc(-c9ccccc9O)cc8c7[C@H]6C)nc5)CC4)C3)C2)C(C)(C)CCN2CCN[C@@H](C(=O)O)C2)cc1 [I-341]', '> 100 nM'),
  ('C#Cc1ccc(CNC(=O)[C@@H]2C[C@@H](O)CN2C(=O)[C@@H](N(CCOC)C(=O)N2CC3(CC(N4CCC(c5cnc(N6CCc7[nH]c8nnc(-c9ccccc9O)cc8c7[C@H]6C)nc5)CC4)C3)C2)C(C)(C)C)cc1 [I-140]', '> 100 nM');

Parameters: items (list). Returns: DC50 for each item.
1. C#Cc1ccc(CNC(=O)[C@@H]2C[C@@H](O)CN2C(=O)[C@@H](NC(=O)[C@H]2CCC3(CC2)C[C@H](N2CCC(c4cnc(N5CCN6c7cc(-c8cccc(F)c8O)nnc7NC[C@H]6C5)nc4)CC2)C3)C(C)(C)C)cc1 (single isomer, unassigned) [I-102]
2. C#Cc1ccc(CNC(=O)[C@@H]2C[C@@H](O)CN2C(=O)[C@@H](NC(=O)[C@H]2CCC3(CC2)C[C@H](N2CCN(c4cnc(N5CCN6c7cc(-c8ccccc8O)nnc7NC[C@H]6C5)nc4)CC2)C3)C(C)(C)CCO)c(Cl)c1 (single isomer, unassigned) [I-312]
3. Cc1ncsc1-c1ccc(CNC(=O)[C@@H]2C[C@@H](O)CN2C(=O)[C@@H](NC(=O)[C@H]2CC3(C2)C[C@H](N2CCN(c4cnc(N5CCN6c7cc(-c8ccccc8O)nnc7NC[C@H]6C5)nc4)CC2)C3)C(C)(C)C)cc1 (stereo partly shown) [I-19]
4. C#Cc1ccc(CNC(=O)[C@@H]2C[C@@H](O)CN2C(=O)[C@@H](NC(=O)N2CCC(N3CC4(CC(N5CCC(N6CCc7[nH]c8nnc(-c9ccccc9O)cc8c7[C@H]6C)CC5)C4)C3)CC2)C(C)(C)C)cc1 [I-206]
5. C#CCOc1cc(C(C(=O)N2C[C@H](O)C[C@H]2C(=O)NCc2ccc(-c3scnc3C)cc2O[C@H]2CC[C@@H](N3CCC(c4cnc(N5CCc6[nH]c7nnc(-c8ccccc8O)cc7c6[C@@H]5C)nc4)CC3)CC2)C(C)C)on1 (stereo partly shown) [I-39]
6. C#Cc1ccc(CNC(=O)[C@@H]2C[C@@H](O)CN2C(=O)[C@@H](NC(=O)N2CCN(CC3CCN(c4cnc(N5CCN6c7cc(-c8ccccc8O)nnc7NC[C@H]6C5)nc4)CC3)CC2)C(C)(C)C)cc1 [I-163]
7. Cc1ncsc1-c1ccc(CNC(=O)[C@@H]2C[C@@H](O)CN2C(=O)[C@@H](NC(=O)N2CC3(CCC(N4CCC(c5cnc(N6CCc7[nH]c8nnc(-c9ccccc9O)cc8c7C6C)nc5)CC4)CC3)C2)C(C)(C)C)cc1 (stereo partly shown) [I-62]

Out:
["10 to 50 nM", "10 to 50 nM", "10 to 50 nM", "> 100 nM", "> 100 nM", "10 to 50 nM", "> 100 nM"]

Parameters: items (list). Returns: DC50 for each item.
1. C#Cc1ccc(CNC(=O)[C@@H]2C[C@@H](O)CN2C(=O)[C@@H](NC(=O)C2CCC3(CC2)CC(N2CCC(N4CCC[C@@H](C(=O)N5CCN6c7cc(-c8ccccc8O)nnc7NC[C@H]6C5)C4)CC2)C3)C(C)(C)C)cc1 (single isomer, unassigned) [I-91]
2. C#Cc1ccc(CNC(=O)[C@@H]2C[C@@H](O)CN2C(=O)[C@@H](NC(=O)N2CC3(CC(N4CCC(c5cnc(N6CCc7[nH]c8nnc(-c9ccccc9O)cc8c7[C@H]6C)nc5)CC4)C3)C2)C(C)(C)C)cc1OC [I-319]

Out:
1. > 100 nM
2. 10 to 50 nM

Parameters: items (list). Returns: DC50 for each item.
1. C#Cc1ccc(CNC(=O)[C@@H]2C[C@@H](O)CN2C(=O)[C@@H](NC(=O)N2CC3(CC(N4CCN([C@H]5CC[C@H](N6CCc7[nH]c8nnc(-c9ccccc9O)cc8c7[C@H]6C)CC5)CC4)C3)C2)C(C)(C)C)cc1 [I-186]
2. C#Cc1cc(Cl)c(CNC(=O)[C@@H]2C[C@@H](O)CN2C(=O)[C@@H](NC(=O)[C@H]2CC3(C2)C[C@H](N2CCC(N4CCC(N5CCN6c7cc(-c8ccccc8O)nnc7NC[C@H]6C5)CC4)CC2)C3)C(C)(C)C)c(OC)c1 (single isomer, unassigned) [I-328]

Out:
1: 50 to 100 nM; 2: > 100 nM

----------
Target: SMARCA2 (Homo sapiens, UniProt P51531)
Test: SMARCA2 Western blot degradation in MV4-11 cells
Format: cell-based
Set-up: SMARCA2/SMARCA4 protein degradation selectivity in MV4-11 cells; endogenous in cells; host or cells: MV4-11
Conditions: MV4-11 cells, 24 h; read-out: SMARCA2 MSD MV411 degradation 24 h: Mean external-Abs DC50
REPORTED_PROPERTY: DC50

Observe how each entry below is paired with its result.
INSERT INTO measurements (molecule, reported) VALUES
  ('Cc1ncsc1-c1ccc(CNC(=O)[C@@H]2C[C@@H](O)CN2C(=O)[C@@H](NC(=O)C2(F)CC2)C(C)(C)C)c(O[C@H]2CC[C@H](N3CCC(c4cnc(N5CCc6[nH]c7nnc(-c8ccccc8O)cc7c6[C@H]5C)nc4)CC3)CC2)c1 (single isomer, unassigned)', '< 1 nM'),
  ('C#Cc1ccc(CNC(=O)[C@@H]2C[C@@H](O)CN2C(=O)[C@@H](NC(=O)N2CC3(CC(N4CCC(N5CCC(N6CCc7[nH]c8nnc(-c9ccccc9O)cc8c7[C@@H]6C)CC5)CC4)C3)C2)C(C)(C)C)c(F)c1', '10 to 100 nM'),
  ('CC(C)(C)[C@H](NC(=O)[C@H]1CCC2(CC1)C[C@H](N1CCC(c3cnc(N4CCN5c6cc(-c7ccccc7O)nnc6NC[C@H]5C4)nc3)CC1)C2)C(=O)N1C[C@H](O)C[C@H]1C(=O)NCC#Cc1ccc(Cl)cc1 (single isomer, unassigned) [I-101]', '> 100 nM'),
  ('C#Cc1ccc([C@H](C)NC(=O)[C@@H]2C[C@@H](O)CN2C(=O)[C@@H](NC(=O)[C@H]2CCC3(CC2)C[C@H](N2CCN(c4cnc(N5CCN6c7cc(-c8ccccc8O)nnc7NC[C@H]6C5)nc4)CC2)C3)C(C)(C)C)cc1 (single isomer, unassigned) [I-233]', '1 to 10 nM'),
  ('Cc1ncsc1-c1ccc(CNC(=O)[C@@H]2C[C@@H](O)CN2C(=O)[C@@H](NC(=O)[C@H]2CC3(CC[C@H](N4CCN(c5ccnc(N6CCc7[nH]c8nnc(-c9ccccc9O)cc8c7[C@H]6C)n5)CC4)CC3)C2)C(C)(C)C)cc1 (single isomer, unassigned) [I-81]', '1 to 10 nM');

Parameters: items (list). Returns: DC50 for each item.
1. C#Cc1ccc(CNC(=O)[C@@H]2C[C@@H](O)CN2C(=O)[C@@H](NC(=O)N2CCC(CN3CCC(N4CCC(N5CCc6[nH]c7nnc(-c8ccccc8O)cc7c6[C@H]5C)CC4)CC3)CC2)C(C)(C)C)cc1
2. C#Cc1ccc(CNC(=O)[C@@H]2C[C@@H](O)CN2C(=O)[C@@H](NC(=O)C2CCN(C[C@H]3CC[C@@H](N4CCc5[nH]c6nnc(-c7ccccc7O)cc6c5[C@H]4C)CC3)CC2)C(C)(C)C)cc1 (single isomer, unassigned)
3. C#Cc1ccc(CNC(=O)[C@@H]2C[C@@H](O)CN2C(=O)[C@@H](NC(=O)N2CC3(CC(N4CCC(c5cnc(N6CCc7[nH]c8nnc(-c9ccccc9O)cc8c7[C@@H]6C)nc5)CC4)C3)C2)C(C)(C)C)cc1

Out:
1: > 100 nM; 2: 1 to 10 nM; 3: 10 to 100 nM
